Cited source: PubChem BioAssay (NCI)

- Tested on: TK-10 renal
- experimentSummary: NCI tumour cell line growth inhibition, 48 h
measuredParameter: TGI

{"compound": "CCCC1(CN2c3ccccc3Sc3ccc(Cl)cc32)CCN(CC)C1 (stereo not drawn)", "TGI": "3.32 µM"}
{"compound": "COc1cc(/C=N/N=C(\\N)NO)cc(OC)c1OC", "TGI": "> 100 µM"}

Field TGI (entry CC1(C)OC(=S)N(c2ccccc2)C12C=Cc1cc3ccccc3nc1S2 (stereo not drawn) ) reads > 100 µM

* * *

Collected TGI values appear next to each entry.
- System: 786-0 renal
- experimentSummary: NCI tumour cell line growth inhibition, 48 h
Give the value, in units of µM, as a plain number.

Examples with answers:
{"compound": "ClCc1cccc(Cn2cnc3c(Cl)nc(Cl)nc32)c1", "TGI / µM": 26.8}
{"compound": "Cc1cc(NCc2cc(Nc3ccnc4cc(Cl)ccc34)ccc2F)nc(N2CCOCC2)n1", "TGI / µM": 3.12}
{"compound": "COc1ccc(C2=[S+]C(c3ccccc3)(c3ccccc3)c3ccccc32)cc1", "TGI / µM": 34.9}

Notebook: CCCCCCCCC/C=C1/CC(CO)(COC(=O)CC(C(C)C)C(C)C)OC1=O (stereo not given) , TGI read as 16.1

Measured TGI, COc1cc(C2c3cc4c(cc3OC(NNS(=O)(=O)c3ccc(C)cc3)C2C)OCO4)cc(OC)c1OC (stereo not given) : 31.5

Just so you know, measured TGI for CCOC(=O)C(=CNc1ccc(N(C2=NCC(C)S2)c2ccc(F)c(Cl)c2)cc1)C(=O)OCC (stereo not given) came out at 33.2

The compound C/C(=N\NC(=O)c1ccc(Cl)cc1)c1nc2ncccc2[nH]1 showed TGI equal to 55.3

* * *

- Test system: HCT-116 colon
- experimentSummary: NCI tumour cell line growth inhibition, 48 h
measuredParameter: TGI

{"molecule": "N#[N+]c1c([O-])c2ccccc2c2ccccc12", "valueObserved": "> 100 µM"}
{"molecule": "CO[C@H]1/C=C/O[C@@]2(C)Oc3c(C)c(O)c4c(O)c(c(/C=N/N5CCN(C)CC5)c(O)c4c3C2=O)NC(=O)/C(C)=C\\C=C\\[C@H](C)[C@H](O)[C@@H](C)[C@@H](O)[C@@H](C)[C@H](OC(C)=O)[C@@H]1C", "valueObserved": "> 100 µM"}
{"molecule": "CC(C)=NOC(=O)CNC(=O)C(Cc1ccccc1)NC(=O)C(C)NC(=O)OC(C)(C)C (configuration not stated)", "valueObserved": "> 100 µM"}
{"molecule": "CCCN(CCC)c1ccc(C=O)c(Cl)c1", "valueObserved": "19 µM"}
{"molecule": "O=[N+]([O-])C(/C(Cl)=C(\\Cl)Br)=C(/Cl)SCc1ccccc1", "valueObserved": "7.11 µM"}

Lab note: molecule Cc1ccc(S(=O)(=O)CNC(=O)C(O)(O)C(F)(F)F)cc1 tested on HCT-116 colon; recorded TGI was > 100 µM

Value (TGI, HCT-116 colon) for record CC(NC(=O)Cc1ccc(C(F)(F)P(=O)(OCc2ccc([N+](=O)[O-])o2)N(C)CCCCCl)cc1)c1ccc(OCC2CCCCC2)c(C(N)=O)c1 (configuration not stated) = 4.11 µM

* * *

- Tested on: SW-620 colon
- experimentSummary: NCI tumour cell line growth inhibition, 48 h
measuredParameter: TGI (µM)
Numeric only. Scale: µM

Known results for compounds:
{"compound": "CC(=O)C(C(=O)c1ccc(C)cc1)[C@H]1OC(C)(C)O[C@H]1[C@H]1COC(C)(C)O1 (stereo not given in full)", "TGI (µM)": 10.8}
{"compound": "C=C(CN1CCc2c([nH]c3ccccc23)C1)c1ccc(C(=O)Nc2ccccc2N)cc1", "TGI (µM)": 28.5}
{"compound": "C=C1C(=O)O[C@H]2[C@H]1CC/C(COC(=O)NCc1ccc(Cn3c(=O)sn(CCCCC)c3=O)cc1)=C\\CC[C@@]1(C)O[C@@H]21", "TGI (µM)": 2.85}
{"compound": "C=C1C(=O)C23[C@H](O)C1CC[C@H]2[C@]12COC3(O)[C@@H](O)[C@@H]1C(C)(C)CC[C@@H]2O", "TGI (µM)": 4.86}
{"compound": "O=[N+]([O-])C(/C(Cl)=C(\\Cl)Br)=C(/Cl)SCc1ccccc1", "TGI (µM)": 4.61}

GET /value?item= C=CC(C)(C)n1cc(C2=C(O)C(=O)C(c3cn(C(C)(C)C=C)c4ccccc34)=C(O)C2=O)c2ccccc21 &field=TGI returns 53.8

Entry under test: C[N+](C)(C)CC1CCCCC1=O (stereo not given) . Its TGI was 29.7

Per the record, O=[N+]([O-])c1cc([As](Br)c2ccc(O)c([N+](=O)[O-])c2)ccc1O has TGI of 3.56
